// data source = patent US20240270821A1

Entries and their Relative cAMP EC50
- target-system: hGLP-1R (Homo sapiens, UniProt P43220)
- Sequence (P43220 24-463): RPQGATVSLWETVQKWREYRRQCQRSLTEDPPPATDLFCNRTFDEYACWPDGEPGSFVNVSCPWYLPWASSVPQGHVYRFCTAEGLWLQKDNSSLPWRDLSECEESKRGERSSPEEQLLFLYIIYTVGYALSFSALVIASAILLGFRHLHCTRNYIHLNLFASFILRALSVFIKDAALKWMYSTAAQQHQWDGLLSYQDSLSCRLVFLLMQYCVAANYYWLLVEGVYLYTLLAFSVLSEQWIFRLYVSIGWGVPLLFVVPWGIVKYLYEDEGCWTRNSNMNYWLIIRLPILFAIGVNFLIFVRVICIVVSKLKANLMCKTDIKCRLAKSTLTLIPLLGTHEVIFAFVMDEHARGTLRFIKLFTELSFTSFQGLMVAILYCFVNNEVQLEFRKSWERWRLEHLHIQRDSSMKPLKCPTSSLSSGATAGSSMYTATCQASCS
- assay-summary: cell-based or functional assay
I only need the number, in nM, no unit after it.

YXQGTFTSDYSIXLDKKAAXAFIEYLLEGGPSSGEPPPSEG (synthetic construct; SITE 2: note = 2-Aminoisobutyric Acid; SITE 13: note = alpha-methyl-leucine; SITE 17: note = Lysine is chemically modified through conjugation of the epsilon-amino group of the Lysine side chain with (2-[2-(2-Amino-ethoxy)-ethoxy]-acetyl)2-(gamma-Glu)-CO-(CH2 )18-CO2H; SITE 20:) [Example 294] | 2.16
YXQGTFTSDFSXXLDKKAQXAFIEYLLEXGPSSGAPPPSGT (synthetic construct; SITE 2: note = 2-Aminoisobutyric Acid; SITE 12: note = L-ornithine; SITE 13: note = alpha-methyl-leucine; SITE 17: note = Lysine is chemically modified through conjugation of the epsilon-amino group of the Lysine side chain with (2-[2-(2-Amino-ethoxy)-ethoxy]-acetyl)-(gamma-Glu)) [Example 278] | 4.11
YXQGTFTSDXSQXLDKKAQXAFIEXLIEXGPSSGAPPPSGTGE (Aib, 4Pal, αMeL, Me4Pal; acylated Lys; C-terminal amide; synthetic construct; SITE 2: note = 2-Aminoisobutyric Acid; SITE 10: note = 3-(4-Pyridyl)-L-alanine; SITE 13: note = alpha-methyl-leucine; SITE 17: note = Lysine is chemically modified through conjugation of the epsilon-amino group of the Lysine side chain with (gamma-Glu)2-CO-(CH2)16-CO2H; SITE 20:) [Example 1119] | 3.57
YXQGTXTSDXXIXLDXKAQXEFIEXLIEGGPSSGAPPPEGE (non-natural residues, AEEA-γGlu-diacid acylated Lys, C-terminal amide; synthetic construct; SITE 2: note = 2-Aminoisobutyric Acid; SITE 6: note = alpha-methyl-2-fluoro-L-phenylalanine; SITE 10: note = 3-(4-Pyridyl)-L-alanine; SITE 11: note = alpha-methyl-L-serine; SITE 13: note = alpha-methyl-leucine; SITE 16: note = L-ornithine; SITE 17: note = Lysine is chemically mo) [Example 1148] | 0.299
YXQGTFTSDFSXXLDXKAQXAFIEXLLEGGPSSGAPPPGGSEE (Aib, Orn, αMeL, αMeY; acylated Lys; C-terminal amide; synthetic construct; SITE 2: note = 2-Aminoisobutyric Acid; SITE 12: note = L-ornithine; SITE 13: note = alpha-methyl-leucine; SITE 16: note = L-ornithine; SITE 17: note = Lysine is chemically modified through conjugation of the epsilon-amino group of the Lysine side chain with (gamma-Glu)2-CO-(CH2)) [Example 1049] | 2.23

--- query ---
Ask: Can you share its Relative cAMP EC50? I mean this binder: YXQGTXTSDXXIXLDXKAAXEFIEXLIEGGPSSGAPPPSGTEE (synthetic construct; SITE 2: note = 2-Aminoisobutyric Acid; SITE 6: note = alpha-methyl-2-fluoro-L-phenylalanine; SITE 10: note = 3-(4-Pyridyl)-L-alanine; SITE 11: note = alpha-methyl-L-serine; SITE 13: note = alpha-methyl-leucine; SITE 16: note = L-ornithine; SITE 17: note = Lysine is chemically mo) [Example 725]
Reply: 0.258
